Listed next: entries and their corresponding ΔTm at 10 µM.
- TARGET_ENTITY: Staphylococcus aureus McsB (Staphylococcus aureus, UniProt Q2G0P6)
- Construct: full length, His-tagged, pET-28a(+), expressed in E. coli BL21(DE3), Ni-NTA purified, ~42 kDa; tag kept (anti-His blot); E. coli lysate containing it used for CETSA
- Sequence (Q2G0P6 whole entry): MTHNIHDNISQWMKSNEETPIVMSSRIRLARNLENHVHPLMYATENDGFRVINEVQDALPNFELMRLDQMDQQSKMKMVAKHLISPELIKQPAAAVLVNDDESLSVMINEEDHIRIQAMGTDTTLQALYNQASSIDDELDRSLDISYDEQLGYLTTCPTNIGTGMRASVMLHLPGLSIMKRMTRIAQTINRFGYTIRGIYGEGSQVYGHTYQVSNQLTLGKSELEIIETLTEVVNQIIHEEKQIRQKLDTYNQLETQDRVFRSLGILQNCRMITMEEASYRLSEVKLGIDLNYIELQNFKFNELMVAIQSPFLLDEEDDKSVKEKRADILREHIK
- EXPERIMENT_NOTES: biochemical
- Parameters: Thermal shift assay (SYPRO Orange) of purified His-tagged McsB, melting temperature shift versus DMSO
- PARTICULARS: TSA, purified McsB
MEASUREMENT_NAME: ΔTm at 10 µM (°C)

COMPOUND: CCCC(=O)OCCc1ccccc1 [MMV1578899]
TARGET_ENTITY: Staphylococcus aureus McsB (Staphylococcus aureus, UniProt Q2G0P6)
MEASUREMENT_NAME: ΔTm at 10 µM
EXPERIMENTAL_RESULT: 0.9

COMPOUND: Nc1nc(-c2ccccc2)nc2[nH]nc(Nc3ccc(C(F)(F)F)cc3)c12 [MMV1633968]
TARGET_ENTITY: Staphylococcus aureus McsB (Staphylococcus aureus, UniProt Q2G0P6)
MEASUREMENT_NAME: ΔTm at 10 µM
EXPERIMENTAL_RESULT: 0.78

COMPOUND: Cn1cc(NC(=O)c2cc(NC(=O)c3ccc(/C=C/c4cnc5ccccc5c4)cc3)cn2C)cc1C(=O)NCCN1CCOCC1 [MMV1634391]
TARGET_ENTITY: Staphylococcus aureus McsB (Staphylococcus aureus, UniProt Q2G0P6)
MEASUREMENT_NAME: ΔTm at 10 µM
EXPERIMENTAL_RESULT: 0.473

COMPOUND: Nc1nc2c(Cc3cccnc3)c[nH]c2c(=O)[nH]1 [MMV1782355]
TARGET_ENTITY: Staphylococcus aureus McsB (Staphylococcus aureus, UniProt Q2G0P6)
MEASUREMENT_NAME: ΔTm at 10 µM
EXPERIMENTAL_RESULT: 0.677
